# MEASUREMENT TARGET: human Y4 receptor (human, UniProt P50391 1-375)
# Sequence (P50391 whole entry): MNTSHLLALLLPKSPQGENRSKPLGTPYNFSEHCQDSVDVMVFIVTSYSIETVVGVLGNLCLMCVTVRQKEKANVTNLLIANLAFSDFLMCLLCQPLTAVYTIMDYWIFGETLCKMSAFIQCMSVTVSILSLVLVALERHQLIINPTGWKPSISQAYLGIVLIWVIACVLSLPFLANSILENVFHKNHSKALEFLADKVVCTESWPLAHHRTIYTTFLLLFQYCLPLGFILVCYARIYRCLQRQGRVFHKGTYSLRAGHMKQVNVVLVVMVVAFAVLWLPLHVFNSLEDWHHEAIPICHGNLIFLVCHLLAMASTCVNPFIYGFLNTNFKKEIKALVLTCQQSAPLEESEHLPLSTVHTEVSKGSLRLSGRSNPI
# TEST SUMMARY: 125I-PP displacement
READOUT TYPE: IC50 (nM)

{"BINDER": "GAPLEPEYPGDDATPQQMARYAAELRRYINKLTRPRY [4057136]", "IC50 / nM": 0.064}
{"BINDER": "AAPLEPEYPGDDATPQQMAHYAAELRRYINKLTRPRY [4057141]", "IC50 / nM": 0.114}

A: AAPLEPVYPGDNATPEQMAKYYSELRRYINKLTRPRY [4057271]
B: HPLEPEYPGDDATPQQMARYAAELRRYINKLTRPRY [4057275]
IN: Select one. Lower IC50: A or B Refer to your chosen item by its label in the answer.
OUT: A
(A: 0.062 nM, B: 0.162 nM)

The reported measurements were obtained from patent US20100279930A1.
